biological target: SIRT1 (Homo sapiens); assay: Trp mass spectrometry assay of SIRT1 activation; format: biochemical; conditions: Trp peptide substrate; concentration giving 150% activation of SIRT1
reported_endpoint: Tryp AVG EC1.5 (μM)

Completed entries (count: 5):
O=C1OCc2ccc(NC(=O)N3c4nc(-c5cccc(C(F)(F)F)c5)ccc4N4CC[C@H]3C4)cc21
A (A (EC1.5<1 μM))
O=C(Nc1cccnc1)N1c2nc(C3CCCC(C(F)(F)F)C3)ccc2N2CC[C@H]1C2 (stereo partly shown)
A (A (EC1.5<1 μM))
Cn1ncc2cc(NC(=O)N3c4nc(-c5cccc(C(F)(F)F)c5)ccc4N4CC[C@H]3C4)ccc21
A (A (EC1.5<1 μM))
O=C(Nc1ccncn1)N1c2nc(C3CCCC(C(F)(F)F)C3)ccc2N2CC[C@H]1C2 (stereo partly shown)
B (B (EC1.5 1-25 μM))
Cc1cc(OCC(O)CO)nc(NC(=O)N2c3nc(-c4cccc(C(F)(F)F)c4)ccc3N3CC[C@H]2C3)n1 (stereo partly shown)
B (B (EC1.5 1-25 μM))

Proceed to the following item.
I'd like to know its Tryp AVG EC1.5 (μM). The compound in question is O=C(Nc1ccncc1Cl)N1c2nc(-c3cccc(C(F)(F)F)c3)ccc2N2CC[C@H]1C2
B (B (EC1.5 1-25 μM))

----------
Target: SIRT1 (Homo sapiens)
Assay: Trp mass spectrometry assay of SIRT1 activation
Type: biochemical
Settings: concentration giving 150% activation of SIRT1; Trp peptide substrate
Method: Mass spectrometry based assays were used to identify modulators of SIRT1 activity. […] The peptide was labeled with the fluorophore STMR (excitation 540 nm/emission 580 nm) at the C-terminus. The sequence of the peptide substrate was based on p53 with several modifications. […] The Trp mass spectrometry assay was conducted as follows. […] Test compound was added at varying concentrations to this reaction mixture and the resulting reactions were monitored. […]
reported_endpoint: Tryp AVG EC1.5 (μM)

N=C(NCCN)c1ccc(NC(=O)N2c3nc(-c4cccc(C(F)(F)F)c4)ccc3N3CCC[C@H]2C3)cc1
A (A (EC1.5<1 μM))
FC(F)(F)c1cccc(-c2ccc3c(n2)N(C(=S)Nc2cccc(-c4cnco4)c2)[C@H]2CCN3C2)c1
A (A (EC1.5<1 μM))
O=C(Nc1cccc(-c2cnco2)c1)N1c2nc(N3CCC[C@@H](C(F)(F)F)C3)ccc2N2CC[C@H]1C2
A (A (EC1.5<1 μM))
O=C(NCc1ccc(NC(=O)N2c3nc(-c4cccc(C(F)(F)F)c4)ccc3N3CC[C@H]2C3)cc1)OC[C@@H]1[C@@H]2CCC#CCC[C@@H]21
B (B (EC1.5 1-25 μM))
O=C(Nc1nnc(-c2ccccn2)o1)N1c2nc(-c3cccc(C(F)(F)F)c3)ccc2N2CC[C@H]1C2
A (A (EC1.5<1 μM))
NCc1ncc(-c2cccc(NC(=O)N3c4nc(-c5cccc(C(F)(F)F)c5)ccc4N4CC[C@H]3C4)c2)o1
A (A (EC1.5<1 μM))
O=C(NCCCn1ccnc1)N1c2nc(-c3cccc(C(F)(F)F)c3)ccc2N2CC[C@H]1C2
B (B (EC1.5 1-25 μM))
[N-]=[N+]=Nc1cc(N=[N+]=[N-])cc(-c2ccc3c(n2)N(C(=O)Nc2ccc(F)cn2)[C@H]2CCN3C2)c1
A (A (EC1.5<1 μM))
O=C(Nc1ccccn1)N1c2nc(-c3cccc(C(F)(F)F)c3)ccc2N2CC[C@@H]1C2
A (A (EC1.5<1 μM))
O=C(Nc1cccc(-c2cnco2)c1)N1c2nc(-c3cccc(C(F)(F)F)c3)ccc2N2C[C@@H](O)[C@H]1C2
A (A (EC1.5<1 μM))

Quick check: Tryp AVG EC1.5 (μM) on SIRT1 (Homo sapiens), item O=C(Nc1cc(-c2cnco2)ccn1)N1c2nc(-c3cccc(C(F)(F)F)c3)ccc2N2C[C@@H](O)[C@H]1C2 ?
B (B (EC1.5 1-25 μM))

Reported Tryp AVG EC1.5 (μM) for SIRT1 (Homo sapiens), given O=C(Nc1ccncc1)N1c2nc(-c3cccc(C(F)(F)F)c3)ccc2N2CCC[C@H]1C2 ?
A (A (EC1.5<1 μM))

Notebook: pull reported Tryp AVG EC1.5 (μM) for SIRT1 (Homo sapiens), entry O=C(Nc1cccc(-c2cnco2)c1)N1c2nc(-c3cncc(C(F)(F)F)c3)ccc2N2C[C@@H](O)[C@H]1C2
A (A (EC1.5<1 μM))

Return Tryp AVG EC1.5 (μM) measured with SIRT1 (Homo sapiens) given this compound: O=C(Nc1cccc(-c2ccsc2)n1)N1c2nc(-c3cccc(C(F)(F)F)c3)ccc2N2CC[C@H]1C2
A (A (EC1.5<1 μM))

----------
target: SIRT1 (Homo sapiens, UniProt Q96EB6); experiment: Trp mass spectrometry assay of SIRT1 activation; format: biochemical; conditions: Trp peptide substrate; concentration giving 150% activation of SIRT1
reported_endpoint: Tryp AVG EC1.5 (μM)

Cc1cc(C(F)(F)F)nc(NC(=O)N2c3nc(-c4cccc(C(F)(F)F)c4)ccc3N3CC[C@H]2C3)n1
B (B (EC1.5 1-25 μM))
COc1ccc(C)nc1NC(=O)N1c2nc(-c3cccc(C(F)(F)F)c3)ccc2N2CC[C@H]1C2
B (B (EC1.5 1-25 μM))
Cc1nc(NC(=O)N2c3nc(-c4cccc(C(F)(F)F)c4)ccc3N3CC[C@H]2C3)nc2c1CCC2
B (B (EC1.5 1-25 μM))

----------
target: SIRT1 (Homo sapiens, UniProt Q96EB6); assay: Trp mass spectrometry assay of SIRT1 activation; assay type: biochemical; conditions: concentration giving 150% activation of SIRT1; Trp peptide substrate
reported_endpoint: Tryp AVG EC1.5 (μM)

CCCC(=O)c1cccc(NC(=O)N2c3nc(-c4cccc(C(F)(F)F)c4)ccc3N3CC[C@H]2C3)c1 [Example 736]
A (A (EC1.5<1 μM))
CC(=O)c1ccc(NC(=O)N2c3nc(-c4cccc(C(F)(F)F)c4)ccc3N3CC[C@H]2C3)cc1 [Example 668]
A (A (EC1.5<1 μM))
O=C(Nc1ccnc(OC[C@H](O)CO)n1)N1c2nc(-c3cccc(C(F)(F)F)c3)ccc2N2CC[C@H]1C2 [Example 818]
A (A (EC1.5<1 μM))

----------
target: UniProt:Q96EB6; test: Trp mass spectrometry assay of SIRT1 activation; assay type: biochemical; details: Trp mass spectrometry assay; EC1.5 = concentration of test compound that results in 150% activation of SIRT1
reported_endpoint: Tryp AVG EC1.5 (μM)

Examples from the recorded data:
O=C(Nc1cnccn1)N1c2nc(-c3cncc(F)c3)ccc2N2CCC1CC2 [Example 555]
B (B (EC1.5 1-25 μM))
O=C(Nc1cnccn1)N1c2nc(-c3ccnc(N4CC[C@@H](F)C4)c3)ccc2N2CC[C@H]1C2 [Example 462]
B (B (EC1.5 1-25 μM))
Cc1ccc(-c2ccc3c(n2)N(C(=O)Nc2cncc(F)c2)[C@H]2CCCN3C2)cn1 [Example 477]
B (B (EC1.5 1-25 μM))
CC1(CCC(=O)NCc2ccc(NC(=O)N3c4nc(-c5cccc(C(F)(F)F)c5)ccc4N4CC[C@H]3C4)cc2)N=N1 [Example 548]
B (B (EC1.5 1-25 μM))

Now consider the entry below.
Please report the recorded Tryp AVG EC1.5 (μM) for Cc1c(-c2ccc3c(n2)C(C(=O)Nc2cnccn2)[C@H]2CCN3C2)cnn1C (stereo partly shown) [Example 532] .
B (B (EC1.5 1-25 μM))

----------
Target: SIRT1 (Homo sapiens)
Sequence (Q96EB6 1-747): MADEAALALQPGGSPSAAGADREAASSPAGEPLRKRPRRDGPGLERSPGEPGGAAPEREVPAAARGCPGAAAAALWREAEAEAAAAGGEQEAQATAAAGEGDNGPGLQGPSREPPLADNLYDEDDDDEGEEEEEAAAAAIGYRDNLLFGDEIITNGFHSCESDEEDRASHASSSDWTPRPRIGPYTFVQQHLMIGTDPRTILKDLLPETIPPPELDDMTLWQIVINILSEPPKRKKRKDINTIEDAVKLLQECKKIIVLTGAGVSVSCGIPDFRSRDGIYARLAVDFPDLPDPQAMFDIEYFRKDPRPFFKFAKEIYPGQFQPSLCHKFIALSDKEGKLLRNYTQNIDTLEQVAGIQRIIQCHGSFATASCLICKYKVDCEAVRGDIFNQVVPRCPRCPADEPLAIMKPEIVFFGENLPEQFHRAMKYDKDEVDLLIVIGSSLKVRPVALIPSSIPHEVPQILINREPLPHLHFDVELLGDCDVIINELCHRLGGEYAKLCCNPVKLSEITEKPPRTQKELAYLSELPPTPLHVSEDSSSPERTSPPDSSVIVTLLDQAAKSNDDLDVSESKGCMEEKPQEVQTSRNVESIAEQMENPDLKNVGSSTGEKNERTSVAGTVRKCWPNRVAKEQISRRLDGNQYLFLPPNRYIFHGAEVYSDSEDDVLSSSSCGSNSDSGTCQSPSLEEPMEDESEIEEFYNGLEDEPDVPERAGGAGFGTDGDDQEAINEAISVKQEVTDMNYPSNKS
Assay: Trp mass spectrometry assay of SIRT1 activation
Type: biochemical
Conditions: Trp peptide assay; maximum activity relative to control (100%); read-out: TRP MAX RESP (percent maximum fold activation)
Where a name gives a salt, the structure may show the parent alone.
reported_endpoint: Emax

Example entries begin here.
C[C@H]1CN(c2ccc3c(n2)N(C(=O)Nc2cnccn2)[C@H]2CCN3C2)C[C@H](C)O1
> 150%
O=C(Nc1cccnn1)N1c2nc(-c3ccnc(C(F)(F)F)c3)ccc2N2CCC[C@H]1C2
> 150%
Cc1cc(-c2ccc3c(n2)N(C(=O)N2CC[C@@H](C)C2)[C@H]2CCN3C2)ccn1
< 150%
O=C(Nc1ccccn1)N1c2nc(N3CCC[C@@H]3C(F)(F)F)ccc2N2CC[C@H]1C2
> 150%
O=C(NC1CCC1)c1ccc2c(n1)N(C(=O)Nc1ccccn1)[C@H]1CCN2C1
> 150%
O=C(NCC(F)(F)F)c1ccc2c(n1)N(C(=O)Nc1ccccn1)[C@H]1CCN2C1
> 150%
O=C(Nc1cnccn1)N1c2nc(-c3ccc(C4CC4)nc3)ccc2N2CC[C@H]1C2
> 150%
Cc1ccc(-c2ccc3c(n2)N(C(=O)Nc2cccnc2)[C@H]2CCN3C2)c(C)n1
> 150%
O=C(c1ccc2c(n1)N(C(=O)Nc1ccccn1)[C@H]1CCN2C1)N1CCC(F)(F)C1
> 150%
Cc1cc(-c2ccc3c(n2)N(C(=O)NCCc2cccnc2)[C@H]2CCN3C2)ccn1 [hydrochloride]
< 150%

Requested read-out: Emax. Entry: Cn1cc(-c2ccc3c(n2)N(C(=O)Nc2cnccn2)[C@H]2CCN3C2)cn1
> 150%

I have this compound here, Cc1cc(-c2ccc3c(n2)N(C(=O)Nc2ccc4c(c2)OCCCO4)[C@H]2CCN3C2)ccn1 , and I need its recorded Emax.
> 150%

What does the data say about its Emax? Entry: Cc1ccc(-c2ccc3c(n2)N(C(=O)NC2CCOCC2)[C@H]2CCN3C2)cn1
< 150%

# input compound: Cc1ccc(-c2cc(C)c3c(n2)N(C(=O)Nc2ccccn2)[C@H]2CCN3C2)cn1 ; wanted: its Emax
> 150%

Give its Emax value. Item: Cc1cc(-c2ccc3c(n2)N(C(=O)Nc2cnn(C)c2)[C@H]2CCCN3C2)ccn1
> 150%

Origin of values: patent US9834558B2
